The values you see were collected from patent US20250084061A1.

Test system: Heliothis armigera
measurement_description: Insecticidal activity, artificial feed surface coating method
Format: in vivo
measurement_setup: 500 mg/L test solution
measured_metric: Insecticidal activity (mortality rate grade) Heliothis armigera

* CC(=O)N1N=C(C)CN(N=Cc2ccc[n+](CCCCS(=O)(=O)[O-])c2)C1=O | 0 (mortality rate of 0˜30%)
* CCC(=O)N1N=C(C)CN(N=Cc2ccc[n+](CCCCS(=O)(=O)[O-])c2)C1=O | 0 (mortality rate of 0˜30%)
* CCC(=O)N1N=C(C)CN(N=Cc2ccc[n+](CCCS(=O)(=O)[O-])c2)C1=O | 0 (mortality rate of 0˜30%)
* CCC(=O)N1N=C(C)CN(N=Cc2ccc[n+](CC=CS(=O)(=O)[O-])c2)C1=O | 0 (mortality rate of 0˜30%)
* CC1=NNC(=O)N(N=Cc2ccc[n+](CCCCS(=O)(=O)[O-])c2)C1 | 3 (30˜50%)
